Species on record: Cavia porcellus
Experiment: Concentration-Relaxation Studies was exerted on Guinea Pig Tracheal Rings Precontracted by Carbachol by the compound in presence of Adenosine antagonist DMPX ( E-4 M)
Format: functional, organism-based
Conditions: Trachea
Below, each entry is listed with its recorded log10(EC50).
observation type: log10(EC50) (log10 of the value in µM)

{"columns": ["entry smiles", "observation type", "result"],
 "data": [
  ["CCNC(=O)[C@H]1O[C@@H](n2cnc3c(N)ncnc32)[C@H](O)[C@@H]1O", "log10(EC50)", 1.89],
  ["CCn1nnc([C@H]2O[C@@H](n3cnc4c(N)nc(N[C@H](CO)Cc5ccc(OC)cc5)nc43)[C@H](O)[C@@H]2O)n1", "log10(EC50)", 1.56],
  ["CCn1nnc([C@H]2O[C@@H](n3cnc4c(N)nc(N[C@H](CO)Cc5ccccc5)nc43)[C@H](O)[C@@H]2O)n1", "log10(EC50)", 1.66],
  ["CCn1nnc([C@H]2O[C@@H](n3cnc4c(N)nc(N[C@H](C)Cc5ccc(OC)cc5)nc43)[C@H](O)[C@@H]2O)n1", "log10(EC50)", 1.36],
  ["Nc1ncnc2c1ncn2[C@@H]1O[C@H](CO)[C@@H](O)[C@H]1O", "log10(EC50)", 2.53]
]}
